- study system: Vitamin D3 receptor (Homo sapiens) (UniProt P11473)
- Sequence (P11473 whole entry, looked up): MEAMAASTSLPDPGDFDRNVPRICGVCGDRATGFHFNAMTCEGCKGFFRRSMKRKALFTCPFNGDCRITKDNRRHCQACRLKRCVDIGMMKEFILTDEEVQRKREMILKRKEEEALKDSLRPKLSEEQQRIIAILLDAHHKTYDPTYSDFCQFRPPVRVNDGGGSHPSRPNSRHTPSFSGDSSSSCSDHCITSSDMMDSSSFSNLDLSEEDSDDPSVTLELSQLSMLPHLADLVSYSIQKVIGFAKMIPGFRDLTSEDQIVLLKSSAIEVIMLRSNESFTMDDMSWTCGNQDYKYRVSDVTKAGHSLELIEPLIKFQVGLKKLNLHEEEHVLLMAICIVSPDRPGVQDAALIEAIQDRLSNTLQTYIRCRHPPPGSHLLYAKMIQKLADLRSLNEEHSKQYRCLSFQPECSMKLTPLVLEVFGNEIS
- assay comment: qHTS assay to identify small molecule agonists of the vitamin D receptor (VDR) signaling pathway (AID 743222)
- condition info: HEK293T VDR-UAS-bla, beta-lactamase FRET ratio, 16 h; series mostly up to 63.5 µM
Results filed as inconclusive are left out. The source made the active and inactive calls. Calls come from the whole dose curve.
Hello, when you answer, please use one of the following outcomes: active, inactive

Known results for molecules:
# molecule, cat
rows = [
    ("C=C(C)C(=O)OCC(O)COc1ccc(C(C)(C)c2ccc(OCC(O)COC(=O)C(=C)C)cc2)cc1 (stereo not given)", "inactive"),
    ("O=C1CCCc2c1cc1ccc3cccc4ccc2c1c34", "active"),
    ("CC(C)(C)C(=O)OCOC(=O)[C@@H]1N2C(=O)[C@@H](NC(=O)[C@H](N)c3ccccc3)[C@H]2SC1(C)C", "inactive"),
]

Q) Hi team, can someone confirm the assay call for "CCCCCCCCCCCCCCCC(=O)OC[C@H](O)[C@H]1OC(=O)C(O)=C1O" ?
A) inactive

Q) Which outcome was assigned to "CN(C)C(=O)C1(N2CCCCC2)CCN(CC[C@@]2(c3ccc(Cl)c(Cl)c3)CN(C(=O)c3ccccc3)CCO2)CC1" in this test?
A) inactive
